The measurements presented in this section are drawn from the supplement of paper PMC7411054.

- Test system: HepG2-TP53BP1-CLTA
- Experimental protocol: lowest phenotypically active concentration; higher = less potent
- Details: treatment time: 24 h
Where a name gives a salt, the structure may show the parent alone.
Measured lowest phenotypically active concentration, listed per entry.
Expressed in µM, but write only the number.

Below, each entry is followed by its recorded lowest phenotypically active concentration result.
Molecule: Nc1cc(N)c(N)cc1N [FAK Inhibitor 14]
Uom: µM
Number: 9

Molecule: Fc1ccccc1CNCc1ccc(-c2ccnc3[nH]ccc23)cc1 [OXA 06 dihydrochloride]
Uom: µM
Number: 1

Molecule: Nc1nc(S)c2[nH]cnc2n1 [thioguanine]
Uom: µM
Number: 1

Molecule: COc1cc(N2CCC(N)CC2)ccc1Nc1ncc(Cl)c(-c2c[nH]c3ccccc23)n1
Uom: µM
Number: 3

# input for lookup
// query Consider the molecule C[C@@H]1CN(CC(=O)Nc2ccc3c(c2)Cc2cccc(-c4cc(=O)cc(N5CCOCC5)o4)c2S3)C[C@H](C)O1 . State its measured lowest phenotypically active concentration.
// result 3

* * *

- Tested on: WPMY1-TUBA1B-RELA
- Experimental protocol: phenotypically active (imaging signature differs from DMSO and reproducible) at any of 0.3-9 uM (binary (1 = active, 0 = inactive)); higher = active
- Details: treatment time: 24 h
Where a name gives a salt, the structure may show the parent alone.
Thanks in advance; please answer with one of these: t = active, f = inactive

Known results for compounds:
Compound: NC(=O)C(c1ccccc1)(c1ccc(F)cc1)c1ccc(F)cc1
Tested target: WPMY1-TUBA1B-RELA
Class label: f
//
Compound: COc1ccc2c3c([nH]c2c1)[C@H]1C[C@H]2[C@H](C[C@@H](O)[C@H](OC)[C@H]2C(=O)O)CN1CC3 [Reserpinic acid hydrochloride]
Tested target: WPMY1-TUBA1B-RELA
Class label: f
//
Compound: C#C[C@]1(O)CC[C@H]2[C@@H]3CCc4cc(OC5CCCC5)ccc4[C@H]3CC[C@@]21C
Tested target: WPMY1-TUBA1B-RELA
Class label: f

// query Called result for Cc1ccccc1N1C(=O)c2cc(S(N)(=O)=O)c(Cl)cc2NC1C (stereo not drawn)
// result f

// query Called result for C[C@H](CCC(=O)NCC(=O)O)[C@H]1CC[C@H]2[C@@H]3[C@H](O)C[C@@H]4C[C@H](O)CC[C@]4(C)[C@H]3C[C@H](O)[C@]12C
// result f

// query Called result for CC(C)c1ccc(-c2cc(=O)c3ccccc3o2)cc1
// result f

// query Called result for N#Cc1c(O)c2c(-c3ccc(-c4ccccc4O)cc3)csc2[nH]c1=O
// result f

// query Called result for CCc1cccc(CC)c1NC(=O)N1Cc2[nH]nc(NC(=O)c3ccc(N4CCN(C)CC4)cc3)c2C1
// result t

* * *

- Tested on: A549-GM130-SQSTM1
- Experimental protocol: phenotypically active (imaging signature differs from DMSO and reproducible) at any of 0.3-9 uM (binary (1 = active, 0 = inactive)); higher = active
- Details: treatment time: 24 h
Thanks in advance; please answer with one of these: Y for active, N for inactive

Known results for molecules:
Molecule: CN1CCCC(n2nc(Cc3ccc(Cl)cc3)c3ccccc3c2=O)CC1 (stereo not given)
Class label: Y
--
Molecule: O=C1Cc2c([nH]c3ccc(Br)cc23)-c2ccccc2N1
Class label: Y
--
Molecule: CN/C(=C/[N+](=O)[O-])NCCSCc1csc(CN(C)C)n1
Class label: N
--
Molecule: CCOC(=O)Nc1ccc2c(c1)N(C(=O)CCN1CCOCC1)c1ccccc1S2
Class label: N

Now examine the next entry.
// query Called result for Cc1cc(C(C)Nc2ccccc2)c2nc(N3CCOCC3)cc(=O)n2c1 (stereo not given)
// result N

* * *

Measured lowest phenotypically active concentration, listed per entry.
- System: WPMY1-GM130-SQSTM1
- Experimental protocol: lowest phenotypically active concentration; higher = less potent
- Details: treatment time: 24 h
Where a name gives a salt, the structure may show the parent alone.
Expressed in µM, but write only the number.

Below, each entry is followed by its recorded lowest phenotypically active concentration result.
Molecule: CCCCc1oc2ccccc2c1C(=O)c1cc(I)c(OCCN(CC)CC)c(I)c1
Tested target: WPMY1-GM130-SQSTM1
Uom: µM
Number: 9

Molecule: Cc1c(NC(=O)OC[C@@H]2COCCN2)cn2ncnc(Nc3ccc4c(cnn4Cc4cccc(F)c4)c3)c12
Tested target: WPMY1-GM130-SQSTM1
Uom: µM
Number: 9

Molecule: CCCc1cc(C)n(C)c(=O)c1CN(C)C(=O)c1cc(-c2ccc(N3CCN(C(C)C)CC3)nc2)cc2c1cnn2C(C)C
Tested target: WPMY1-GM130-SQSTM1
Uom: µM
Number: 3

Molecule: CC(C)(C)c1ccc(S(=O)(=O)/C=C/C#N)cc1
Tested target: WPMY1-GM130-SQSTM1
Uom: µM
Number: 9

Molecule: Cc1ccc(NC(=O)c2cccc(C(C)(C)C#N)c2)cc1Nc1ccc2ncn(C)c(=O)c2c1
Tested target: WPMY1-GM130-SQSTM1
Uom: µM
Number: 3

Molecule: COc1cc(N2CCOCC2)ccc1Nc1ncc(Cl)c(Nc2ccccc2NS(C)(=O)=O)n1
Tested target: WPMY1-GM130-SQSTM1
Uom: µM
Number: 9

Molecule: Cc1nc(NC(=O)N2CCC[C@H]2C(N)=O)sc1-c1ccnc(C(C)(C)C(F)(F)F)c1
Tested target: WPMY1-GM130-SQSTM1
Uom: µM
Number: 3

Molecule: CCN(CC)CCNc1ccc(CO)c2sc3ccccc3c(=O)c12
Tested target: WPMY1-GM130-SQSTM1
Uom: µM
Number: 3

// query Consider the molecule Cc1cc(Nc2cc(C)c(C#N)c(NC(C)CCCC(C)(C)O)n2)n[nH]1 (stereo not given) [TC-A 2317 hydrochloride] . State its measured lowest phenotypically active concentration.
// result 1

// query Consider the molecule COc1cc2c(Nc3ccc(Br)cc3F)ncnc2cc1OCC1CCN(C)CC1 . State its measured lowest phenotypically active concentration.
// result 3

// query Consider the molecule COc1cc2c(cc1-c1c(C)noc1C)ncc1[nH]c(=O)n([C@H](C)c3ccccn3)c12 [I-BET 151 dihydrochloride] . State its measured lowest phenotypically active concentration.
// result 3

// query Consider the molecule CCCCCCCCCCNCCSSCc1ccc(Cl)cc1 . State its measured lowest phenotypically active concentration.
// result 9

// query Consider the molecule Cc1ccc(-n2nc(C(C)(C)C)cc2NC(=O)Nc2ccc(OCCN3CCOCC3)c3ccccc23)cc1 . State its measured lowest phenotypically active concentration.
// result 1

// query Consider the molecule COc1cc(C)c(/C=C/C(C)=C/C=C/C(C)=C/C(=O)O)c(C)c1C . State its measured lowest phenotypically active concentration.
// result 9

// query Consider the molecule COc1cc(O)cc(O)c1C(=O)/C=C/c1ccccc1 . State its measured lowest phenotypically active concentration.
// result 9

// query Consider the molecule COc1ccccc1C(=O)Nc1cc2c(cc1N1CCCC1)n(C)c(=O)n2C . State its measured lowest phenotypically active concentration.
// result 9

// query Consider the molecule Cc1noc(C)c1-c1cc(O)cc(C(O)c2ccccc2)c1 (stereo not given) . State its measured lowest phenotypically active concentration.
// result 1

// query Consider the molecule OCc1cc(C(O)CNCCCCCCOCCCCc2ccccc2)ccc1O (stereo not given) . State its measured lowest phenotypically active concentration.
// result 1

// query Consider the molecule C=C1C(=O)O[C@@H]2[C@H]3O[C@]3(C)CCC=C(C)CC[C@@H]12 [Parthenolide] . State its measured lowest phenotypically active concentration.
// result 9

// query Consider the molecule Cc1cc(C(C)(C)C)c(O)c(C)c1CC1=NCCN1 . State its measured lowest phenotypically active concentration.
// result 3

// query Consider the molecule CC(C)CNc1nc(-c2cccc3ncccc23)cn2c(-c3ccc(C(=O)NC4CC4)cc3)cnc12 . State its measured lowest phenotypically active concentration.
// result 1

// query Consider the molecule O=C(CCCN1CCC(O)(c2ccc(Cl)cc2)CC1)c1ccc(F)cc1 . State its measured lowest phenotypically active concentration.
// result 9

// query Consider the molecule Nc1nc(Cl)nc2c1ncn2[C@H]1C[C@H](O)[C@@H](CO)O1 . State its measured lowest phenotypically active concentration.
// result 3

* * *

Measured phenotypically active, listed per entry.
- System: WPMY1-CANX-COX4
- Experimental protocol: phenotypically active (imaging signature differs from DMSO and reproducible) at any of 0.3-9 uM (binary (1 = active, 0 = inactive)); higher = active
- Details: treatment time: 24 h
Where a name gives a salt, the structure may show the parent alone.
API doc: respond with a numeric literal and nothing else, no unit.

Below, each entry is followed by its recorded phenotypically active result.
Compound: CN1C/C(=C/c2ccc(B(O)O)cc2)C(=O)/C(=C/c2ccc(B(O)O)cc2)C1
phenotypically active: 1

Compound: CCN(CC)C(C)CN1c2ccccc2Sc2ccccc21 (stereo not drawn)
phenotypically active: 0

Compound: COc1cc2c(NC3CCN(C)CC3)nc(N3CCCN(C)CC3)nc2cc1OCCCN(C)C
phenotypically active: 0

Compound: CCCc1nn(C)c2c(=O)[nH]c(-c3cc(S(=O)(=O)N4CCN(C)CC4)ccc3OCC)nc12 [Sildenafil citrate]
phenotypically active: 0

Compound: CCn1c(=O)c2cc(C(N)=O)c(N)nc2n(C2CC2)c1=O
phenotypically active: 0

// query Consider the compound CC1(C(=O)O)CCC2(C)CCC3(C)C(=CC(=O)C4C5(C)CCC(OC6OC(C(=O)O)C(O)C(O)C6OC6OC(C(=O)O)C(O)C(O)C6O)C(C)(C)C5CCC43C)C2C1 (stereo not drawn) . State its measured phenotypically active.
// result 0

// query Consider the compound CCCCCCCCCCNCCSSCc1ccc(Cl)cc1 . State its measured phenotypically active.
// result 1

// query Consider the compound C#C[C@]1(O)CC[C@H]2[C@@H]3CCc4cc(OC)ccc4[C@H]3CC[C@@]21C . State its measured phenotypically active.
// result 0
